- Assay System: T1, mouse P2X7 (mouse, UniProt Q9Z1M0 1-595)
- T1 construct: on transfected CHO or Hek293 cells, or endogenous on Yac-1 cells; also called mP2X7; mouse purinoceptor P2X7
- T1 sequence: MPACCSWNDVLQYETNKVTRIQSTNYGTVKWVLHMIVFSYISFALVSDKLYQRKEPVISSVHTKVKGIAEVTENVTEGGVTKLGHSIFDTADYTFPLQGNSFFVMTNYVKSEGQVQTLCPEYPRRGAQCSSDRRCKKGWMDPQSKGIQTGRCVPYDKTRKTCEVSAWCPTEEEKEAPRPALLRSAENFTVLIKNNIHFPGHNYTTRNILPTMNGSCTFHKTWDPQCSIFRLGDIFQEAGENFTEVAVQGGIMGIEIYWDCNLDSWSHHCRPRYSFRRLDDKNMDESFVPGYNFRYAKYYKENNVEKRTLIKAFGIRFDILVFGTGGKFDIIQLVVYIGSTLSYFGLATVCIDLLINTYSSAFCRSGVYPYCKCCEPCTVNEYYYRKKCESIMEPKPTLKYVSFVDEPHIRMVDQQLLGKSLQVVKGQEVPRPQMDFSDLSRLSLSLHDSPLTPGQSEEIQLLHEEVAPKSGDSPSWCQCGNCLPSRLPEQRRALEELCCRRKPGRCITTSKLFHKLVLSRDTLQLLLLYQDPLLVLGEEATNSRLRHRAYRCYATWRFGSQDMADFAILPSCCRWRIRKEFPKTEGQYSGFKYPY
- Test Summary: phage ELISA on fixed mP2X7-CHO vs untransfected CHO cells;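 also: phage culture supernatant diluted 10-fold, applied for 1 h to paraformaldehyde-fixed, BSA-blocked cells in 96-well plates, with bound phage read via HRP-linked anti-M13 antibody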
Experimental Endpoint: Fold Cho P2X7/wt (phage ELISA) (fold)
# output: bare number, implied unit fold

| Binder | Value Observed |
| --- | --- |
| P2X7PMP8E7 (VHH, family 7; on phage or c-myc/His6-tagged in assays) VHH: EVQLVESGGGLVQAGGSLRLSCAASGRTFSSLAMGWLRQAPGKEREFVSGISRGGTSTYYADSVKGRFTISRDNAKNTMYLQMNSLKPEDTAVYYCAGSPVLSIVLDTRGLEYWGQGTQVTVSS | 16 |

Reported Fold Cho P2X7/wt (phage ELISA) ( P2X7PMP13B8 (VHH, family 13; on phage or c-myc/His6-tagged in assays) VHH: EVQLVESGGGLVQPGGSLRLSCAASGLTLTYYNIGWFRQAPGKEREGVSCIDWTDGTTFYADSVKGRFTISTDNAKNTVYLHLNSLEPEDTAVYYCAAGWGRVMTVQHMCADRSLFTSWGQGTQVTVSS ) = 24

The value of Fold Cho P2X7/wt (phage ELISA) measured for the binder P2X7PMP4B4 (VHH, family 4; on phage or c-myc/His6-tagged in assays) VHH: EVQLVESGGGLVQAGGSLRLSCAASGRTVSDYGMGWFRQAPGKLREFVASINWSGIYTRYIDSVEGRFTISRDNTKNTLYLQMNNLKAEDTAVYYCAYFLGPNWYSNYGRPSSYDFYGQGTQVTVSS turned out to be 19

binder P2X7PMP14D5 (VHH, family 17; on phage or c-myc/His6-tagged in assays) VHH: KVQLVESGGGLVQAGGSLRLSCAASGSPISSYAMGWYRQAPGKPRELVARIYTGGTAWYEDSVKGRFTISRDNAQNTVYLQMNSLKSEDTAVYYCHGRVRYDYWGQGTQVTVSS , Fold Cho P2X7/wt (phage ELISA) observed: 8

Record P2X7PMP7D6 (VHH, family 8; on phage or c-myc/His6-tagged in assays) VHH: EVQLVESGGGLVQAGGSLRLSCAASGRTFGSSPVGWFRQAPGKERDFVATISWNGVDTHYLDSVKGRFTISRDNAKNTVHLQMHILKPEDTALYYCAASTSGSVYLPYRVYQYDSWGQGTQVTVSS , field Fold Cho P2X7/wt (phage ELISA): 18

The recorded Fold Cho P2X7/wt (phage ELISA) for P2X7PMP1A8 (VHH, family 2; on phage or c-myc/His6-tagged in assays) VHH: EVQLVESGGGLVQTGGSLRLSCAASGFTLDDYAIAWFRQAPGKEREGVSILSSIGKTFYADSVKDRFSITADGAKTTVFLQMNSLKPGDTAIYYCVAGHFVYNDGAISLNTARGSGFWGQGAQVTVSS is 20
